- condition-context: human, in vivo
Where a name gives a salt, the structure may show the parent alone.
readout-kind: Eta^2, Age vs Ctrough
Note: the reply should be a number with no unit written.

-- ask Requested field: Eta^2, Age vs Ctrough. Item: Nc1nc(=O)n([C@@H]2CS[C@H](CO)O2)cc1F [FTC, emtricitabine]
-- reply 0.099

-- ask Another molecule to check: Nc1nc(NC2CC2)c2ncn([C@H]3C=C[C@@H](CO)C3)c2n1 [ABC, abacavir]
-- reply 0.069

-- ask Another molecule to check: Nc1ccn([C@@H]2CS[C@H](CO)O2)c(=O)n1 [3TC, lamivudine]
-- reply 0.101

-- ask Another molecule to check: CC(C)OC(=O)OCOP(=O)(CO[C@H](C)Cn1cnc2c(N)ncnc21)OCOC(=O)OC(C)C [TDF, tenofovir disoproxil fumarate]
-- reply 0.075

Values from paper PMC8294567
